B1: HDV Ribozyme (parent)
chain: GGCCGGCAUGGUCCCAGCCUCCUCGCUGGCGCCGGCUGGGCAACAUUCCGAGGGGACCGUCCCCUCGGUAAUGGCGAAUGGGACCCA

Variants of: B1
Experiment: self-cleavage, relative activity (ratio to wild type); higher = more cleavage; co-transcriptional
parameter: self-cleavage

querySequence: GGCCGGCAUGGUCCCAGCCUCCUCGCUGGCGCCGGCUGGGCAACAUUCCGAGGGGACCGUCCCCUCGGUAAUGGCGAAUUAGACCCA
parameter: self-cleavage
readoutNumber: 0.277
--
querySequence: GGCCGGCAUGGUCCCAGCCUCCUCGUUGGCGCCGGCUGGGCAACAUUCCGAGGGGACCGUCCCCUCGGUAAUGGCGAAUGGGUCCCA
parameter: self-cleavage
readoutNumber: 0.79
--
querySequence: GGCCGGUAUGGUCCCAGCCUCCUCGCUGGCGCCGGCUGGGCAACAUUCCGAGGGGCCCGUCCCCUCGGUAAUGGCGAAUGGGACCCA
parameter: self-cleavage
readoutNumber: 0.806
--
querySequence: GGCCGGCAUGGUCCCAGCCUCCUCGCUGGCGCCGGCUGGACAACACUCCGAGGGGACCGUCCCCUCGGUAAUGGCGAAUGGGACCCA
parameter: self-cleavage
readoutNumber: 0.525
--
querySequence: GGCCGGCAUGGUCCCAGGCUCCUCGCUGGCGCCGGCUGGGCAACAUUCCGAGGGGACCGACCCCUCGGUAAUGGCGAAUGGGACCCA
parameter: self-cleavage
readoutNumber: 0
--
querySequence: GGCCGGCAUGGUCCCAGCCUCCUCACUGGCGCCGGCUGGGCAACAUUCCGAGGGGACCGUCCCUUCGGUAAUGGCGAAUGGGACCCA
parameter: self-cleavage
readoutNumber: 0.204
--
querySequence: GGCCGGCAUGGACCCAGCCUCCUCGCUGGCGCCGGCUGGGCAACAUUCAGAGGGGACCGUCCCCUCGGUAAUGGCGAAUGGGACCCA
parameter: self-cleavage
readoutNumber: 0.128
--
querySequence: GGCCGGCAUGGUCCCAGCCUCCUCGCUGGCGCCGGCUGGACAACAUUCCGAGGGGACCGUCCCCUCGGUAGUGGCGAAUGGGACCCA
parameter: self-cleavage
readoutNumber: 0.748
--
querySequence: GGCCGGCAUGGUCCCAGCCUCCUCGCUGGCGCCGGCUGGGCAACGUUCCGAGGGGGCCGUCCCCUCGGUAAUGGCGAAUGGGACCCA
parameter: self-cleavage
readoutNumber: 0.997
--
querySequence: GGCCCGCAUGGUGCCAGCCUCCUCGCUGGCGCCGGCUGGGCAACAUUCCGAGGGGACCGUCCCCUCGGUAAUGGCGAAUGGGACCCA
parameter: self-cleavage
readoutNumber: 0.262
--
querySequence: GGCCGGCAUGGUCCCAGCCUCCUCGCUGGCGUCGGCUGGGCAACAUUCCGAGGGGACCGUCCCCUCGGUAAUGGAGAAUGGGACCCA
parameter: self-cleavage
readoutNumber: 0.0692
--
querySequence: GGCCGGCAUGGUCCCAGCCUCCUCACUGGCGCCGGCUGGGCAACAUUCCAAGGGGACCGUCCCCUCGGUAAUGGCGAAUGGGACCCA
parameter: self-cleavage
readoutNumber: 0.406
--
querySequence: GGCCGGCAGGGUCCCAGCCUCCUCGCUGGCGCCGGCUGAGCAACAUUCCGAGGGGACCGUCCCCUCGGUAAUGGCGAAUGGGACCCA
parameter: self-cleavage
readoutNumber: 0.475
--
querySequence: GGCCGGCAUGGUCCCAGCCUCCUCGCUGGAGCCGGCUGGGCAACAUUCCGAGGGGACCGUCCCCUCGGUAAUGGCGAUUGGGACCCA
parameter: self-cleavage
readoutNumber: 0.237
--
querySequence: GGCCGGCAUGGUCCCGGCCUCCUCGCUGGCGCCGGCUGGGCAACAUUCCGAGGGGACCGUCCCCUCGGUAAUGGCGAAUGGGACCUA
parameter: self-cleavage
readoutNumber: 1.2
--
querySequence: GGCCGGCAUGGUCCCAGCCUCCUCGCUGGAGCCGGCUGGGCAACAUUCCGAGGGGACCGUCCCCUCGGUAAUGGCGAAUGGGACCAA
parameter: self-cleavage
readoutNumber: 0.591
--
querySequence: GGCCGGCAUGGUCCCAGCCUCUUCGCUGGCGCCGGCUGGGCAUCAUUCCGAGGGGACCGUCCCCUCGGUAAUGGCGAAUGGGACCCA
parameter: self-cleavage
readoutNumber: 0.0831
--
querySequence: GGCCGGCAUGGUCCCGGCCUCCUCGCUGGCGCCGGCUGGGCAACAUUCCGAGGGGACCGUCCCCUCGGUAAUGGCGAAUGGGACCAA
parameter: self-cleavage
readoutNumber: 0.76
--
querySequence: GGCCGGCAUGGUCCCAGCCUCCUCGCUGGCGCCGGCUGGGCAACAUGCCGUGGGGACCGUCCCCUCGGUAAUGGCGAAUGGGACCCA
parameter: self-cleavage
readoutNumber: 1.2
--
querySequence: GGCCGGCAUGGUCCCAGCCUCCUCGCUGGCGCCGGCUAGGCAACAUUCCGAGGGGACCGUCCCCUCUGUAAUGGCGAAUGGGACCCA
parameter: self-cleavage
readoutNumber: 0.135
--
querySequence: GGCCGGCAUGGUCCCAGCCUCCUCGCUGGCGCCGGCUGGGCAACAUUCCGAGGGGACCCUCCACUCGGUAAUGGCGAAUGGGACCCA
parameter: self-cleavage
readoutNumber: 1.17
--
querySequence: GGCCGGCAUGGUCCCAGCCUCCUCGCUGGCGCCGACUGGGCAACAUUCCGAGGGGACCGUCCCCUCGGUAAUGGCGAAUGGGACUCA
parameter: self-cleavage
readoutNumber: 0.541
--
querySequence: GGCAGGCAUGGUCCCAGCCUCCUCGCUGGCGCCGGCUGGGCAACAUUCCGAGGGGACCGUCCCCUCGGUAAUGGCGGAUGGGACCCA
parameter: self-cleavage
readoutNumber: 0.0369
--
querySequence: GGCCGGCAUGGUCCCAGCCUCCACGCUGGCGCCGGCUGGGCAACAUUCCGAGGGGACCGUCCCCUCGGUAAUGGCGAAUGGGCCCCA
parameter: self-cleavage
readoutNumber: 0.508
--
querySequence: GGCCGGCAUGGUCCCAGCCUCCUCGCUGGCGCCGGCUGGGCAACAUUCCGAGGGGACCCUCCCCUCGGUAAUGGCGGAUGGGACCCA
parameter: self-cleavage
readoutNumber: 1.13
--
querySequence: GGCCGGCAUGGUCCCAGCCUCCUCGCUCGCGCCGGCUGGGCAACAUUCGGAGGGGACCGUCCCCUCGGUAAUGGCGAAUGGGACCCA
parameter: self-cleavage
readoutNumber: 0.119
--
querySequence: GGCCGGCAUGGUCCCAGCCUCCUCGCUGCCUCCGGCUGGGCAACAUUCCGAGGGGACCGUCCCCUCGGUAAUGGCGAAUGGGACCCA
parameter: self-cleavage
readoutNumber: 0.0755
--
querySequence: GGUCGGCAUGGUCCCAGCCUCCUAGCUGGCGCCGGCUGGGCAACAUUCCGAGGGGACCGUCCCCUCGGUAAUGGCGAAUGGGACCCA
parameter: self-cleavage
readoutNumber: 0.328
--
querySequence: GGCCGGCAUGUUCCCAGCCUCCUCGCUGGCGCCGGCUGGGCAACAUUCCGAGGGGACCGUCCCCACGGUAAUGGCGAAUGGGACCCA
parameter: self-cleavage
readoutNumber: 0.321
--
querySequence: GGCCGGCAUGGUCCCAGCCUCAUCGCUGGCGCCGGCUGGGCAACAUUCCGAGGGGACCGUCCCCUCGGUAAUAGCGAAUGGGACCCA
parameter: self-cleavage
readoutNumber: 0.0723
--
querySequence: GGCCGGCAUGGUCCCAGCCUCCUCGCUGGCGCUGGCUGGGCAACAUUCCGGGGGGACCGUCCCCUCGGUAAUGGCGAAUGGGACCCA
parameter: self-cleavage
readoutNumber: 1.01
--
querySequence: GGCCGGCAUGGUCCCAGCCUCCUCGCUGGCGCCGGCUGGGCAACAUUCCGAGGGGACCGUCCCCUCGUUAAUGCCGAAUGGGACCCA
parameter: self-cleavage
readoutNumber: 0.222
--
querySequence: GGCCGGCAUGGUCCCAGCCUCCUCGCUGGCGCCGGCUGGGCAACAUUCCGAGGGAACCGUCCCCUCGGUAAUGGCCAAUGGGACCCA
parameter: self-cleavage
readoutNumber: 1.09
--
querySequence: GGCCGGCAUGGUCCCAGCCUCCACGCUGGCGCCGGCUGGGCAACAUUCCGAGGGGACCGUCCCCUCGGUAAUGGCCAAUGGGACCCA
parameter: self-cleavage
readoutNumber: 1.1
--
querySequence: GGCCGGCAUGGUCCCAGCCUCCUCACUGGCGCCGACUGGGCAACAUUCCGAGGGGACCGUCCCCUCGGUAAUGGCGAAUGGGACCCA
parameter: self-cleavage
readoutNumber: 0.271
--
querySequence: GGCCGGCAUGGUCCCGGCCUCCUCGCUGGCGCCGGCUGGGCAACAUUCCGAGGGGACCGUCCCCUCGGUAAUGGCGAAUGGGAACCA
parameter: self-cleavage
readoutNumber: 0.7
--
querySequence: GGCCGGCAUGGUCCCAGCCUCCUCGCUGGCGCUGGCUAGGCAACAUUCCGAGGGGACCGUCCCCUCGGUAAUGGCGAAUGGGACCCA
parameter: self-cleavage
readoutNumber: 0.172
--
querySequence: GGCCGGCAUGGUCCCAAACUCCUCGCUGGCGCCGGCUGGGCAACAUUCCGAGGGGACCGUCCCCUCGGUAAUGGCGAAUGGGACCCA
parameter: self-cleavage
readoutNumber: 0.252
--
querySequence: GGCCGGCAUGGACCCAGCCUCCUCGCUGGCGCCGGCUGGGCGACAUUCCGAGGGGACCGUCCCCUCGGUAAUGGCGAAUGGGACCCA
parameter: self-cleavage
readoutNumber: 0.256
--
querySequence: GGCCGGCAUGGUCCCAGCCUCCUCGCUGGCGCAGGCUGGGCAACAUUCCGAGGGGACCGUCCCCUCGGUAAUGGCGAAAGGGACCCA
parameter: self-cleavage
readoutNumber: 0.128
--
querySequence: GGCCCGCAUGGUCCCAGCCUCCUCGCUGGCGCCGGCUGGGCAACAUUCGGAGGGGACCGUCCCCUCGGUAAUGGCGAAUGGGACCCA
parameter: self-cleavage
readoutNumber: 0.192
--
querySequence: GGCCGGCAUGGUCCCAGCCUCCUCGCUGGCGCCGGCUGGGCCACCUUCCGAGGGGACCGUCCCCUCGGUAAUGGCGAAUGGGACCCA
parameter: self-cleavage
readoutNumber: 0.0462
--
querySequence: GGCCGGCAUGGUCCCAGCCUCCUUGCUGGCGCCGGCAGGGCAACAUUCCGAGGGGACCGUCCCCUCGGUAAUGGCGAAUGGGACCCA
parameter: self-cleavage
readoutNumber: 0.18
--
querySequence: GGCCGGCAUGGUCCCAGCCUCCUCGCAGGCGCCGGCUGGGCAACAUUCCGAGGGGACCGUCCCCUCGGUAAUGGCGACUGGGACCCA
parameter: self-cleavage
readoutNumber: 0.0573
--
querySequence: GGCCGGCAUGGUCCCAGCCUCCUCGCUGGCGCCGGCUGGGCAACAUUCCGAGAGGACCGUCACCUCGGUAAUGGCGAAUGGGACCCA
parameter: self-cleavage
readoutNumber: 1.05
--
querySequence: GGCCGGCAUGGUCCCAGCCUCCUCGCGGGCGCCGGCUGGGCAACAUUCCGAGGGGACCGUCCCCUCGGUAAUGGCGAUUGGGACCCA
parameter: self-cleavage
readoutNumber: 0.0831
